Test system: TK-10
Test: NCI tumour cell line growth inhibition, 48 h
Calls of active or inactive are those of the source. Cut-off read from the data, not from the text of the source: active = GI50 up to about 1.1 µM and inactive = higher.
GI50: recorded values

Past entries and their recorded results:
{"molecule": "C=CC1=C(C)c2cc3[nH]c(c4c5nc(cc6[nH]c(cc1n2)c(C)c6CC)C=C5C(=O)C4C(=O)OC)C(CCC(=O)OC/C=C(\\C)CCCC(C)CCCC(C)CCCC(C)C)C3C.C=CC1=C(C)c2cc3[nH]c(c4c5nc(cc6[nH]c(cc1n2)c(C=O)c6CC)C=C5C(=O)C4C(=O)OC)C(CCC(=O)OC/C=C(\\C)CCCC(C)CCCC(C)CCCC(C)C)C3C (stereo unspecified)", "GI50": "> 100 µM (inactive)"}
{"molecule": "Clc1ccc(OCc2nnc3sc(-c4ccc(-c5ccc(Cl)cc5Cl)o4)nn23)c(Cl)c1", "GI50": "19.5 µM (inactive)"}
{"molecule": "CC(=O)NC1C(OCc2ccccc2)OC(COC(=O)CCCCCCCCCCNc2ccc([N+](=O)[O-])c3[nH]c4ccccc4c(=O)c23)C(O)C1OC(C)C(=O)NC(C)C(=O)NC(CCC(N)=O)C(=O)OCc1ccccc1 (stereo unspecified)", "GI50": "> 100 µM (inactive)"}

# value of GI50, TK-10, item "COc1ccc(C(SCCO)(c2ccccc2)c2ccc(OC)cc2)cc1" = 18.1 µM (inactive)

# value of GI50, TK-10, item "COC(=O)CCC1(CCC(=O)OC)CCCCCCC(CCC(=O)OC)(CCC(=O)OC)C(=O)C1=O" = > 100 µM (inactive)

# value of GI50, TK-10, item "Cc1ccccc1NC(=O)c1nc(S)nc(N)c1-c1ccccc1C" = > 100 µM (inactive)

Source listed as ChEMBL document CHEMBL1201862.
